Provenance of the data: PubChem BioAssay (NCI)

Would you mind telling me the reported growth inhibition of each entry?
Assay: NCI Yeast Anticancer Drug Screen. Data for the mgt1 strain (AID 153)
Settings: S. cerevisiae mgt1 mutant growth inhibition; at 33.0 µM; stronger effect = higher value
About 79,000 compounds went through this panel and 15% of them were active in at least one assay; those are over-represented in the sample as a whole.
Quick reminder: number only, in %, skip the unit.

Input `O=S(=O)(c1ccccc1)N1CN2CN(C1)CN(S(=O)(=O)c1ccccc1)C2` , output reported growth inhibition.
7

Please indicate growth inhibition recorded for CCN1CCC(O)(c2ccc(Oc3ccc(C)cc3)cc2)C(C(=O)c2ccc(Oc3ccc(C)cc3)cc2)C1 (configuration not stated)
96

Return growth inhibition (reported value) for this compound: COc1cc(OC)c(CSCC(NC(=O)OCC2c3ccccc3-c3ccccc32)C(=O)O)c(OC)c1 (configuration not stated)
97

Answer with the recorded growth inhibition for the compound listed here: COc1ccccc1/C=C\C(=O)C1COCN1 (configuration not stated)
53

Read the entry `CC(=O)CCC1=C(C)C(=O)C(=O)C(C)=C1O` and write its reported growth inhibition.
8

Provide only the value of recorded growth inhibition for COc1cc2c(cc1O)[C@H](C)C(c1ccccc1OC)O2 (some centres not stated)
33

Dear colleague, please send me the reported growth inhibition for `O=C1c2ccccc2-c2cc3ccccc3c(=O)n21` when you can.
71

Output measured growth inhibition for this item: `Nc1cccc(-c2cc[cH-]c2)c1.[Fe+2].c1cc[cH-]c1`
4

Read off the recorded growth inhibition for `Cc1c2c(nc3ccccc13)C(=O)c1cccnc1C2=O`
13

Output growth inhibition of `Cc1c(C(=O)/C=C/c2ccccc2[N+](=O)[O-])[n+](=O)c2ccccc2n1[O-]`
94

Please report the measured growth inhibition for `C/C(=N/NC(=S)Nc1ccccc1C)c1ccccn1`
-22

Provide only the value of recorded growth inhibition for `CCS(=O)(=O)Nc1ccc(Nc2c3ccccc3nc3ccccc23)c(OC)c1`
3

Look up growth inhibition of O=C(NNc1ccccc1)C(CCCCNS(=O)(=O)Cc1ccccc1)NS(=O)(=O)Cc1ccccc1 (configuration not stated) and report it.
18

Give reported growth inhibition value for `Cc1ccc([N+](=O)[O-])c2c(NCCC[N+](C)(C)[O-])c3ccccc3nc12`
5

State its growth inhibition for this compound: `CN(C)CCCn1c2c3ccccc3ccc2c2oc(=O)c3ccccc3c21`
92

Please supply the value of reported growth inhibition for the item COC1=CCC23C(=O)C=CC(=O)C2(C1)C(=O)c1ccccc1C3=O (configuration not stated)
40

Fill in growth inhibition for record OC1(c2ccccc2)C2CC=CC2C1(c1ccccc1)c1ccccc1 (configuration not stated)
-4

Provide only the value of recorded growth inhibition for N#CCC(=O)N/N=C(\c1ccccc1)C(c1ccccc1)C1(O)C(=O)Nc2c(Cl)ccc(Cl)c21 (configuration not stated)
-2

State, in one line, measured growth inhibition of `O=C(c1cc(=O)c2ccc(O)cc2o1)c1ccc(Cl)cc1Cl`
89

Could you please provide reported growth inhibition for `CC1=COC2=C(C)C(=O)C(=O)c3c(C)ccc1c32` ? Thanks!
89

Entry `CCCCCCNCCCNc1c2cc(OC)ccc2nc2cccc([N+](=O)[O-])c12` needs its growth inhibition filled in; supply it.
81

Identify measured growth inhibition associated with `O=C(/C=C/c1ccsc1)c1cccs1`
10

====

Test: NCI Yeast Anticancer Drug Screen. Data for the rad50 strain (AID 155);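 note: 0% = growth of vehicle-only cultures of the same strain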
Details: S. cerevisiae rad50 strain growth inhibition; at 5.0 µM (retest, dose inferred, filed as 0.5); stronger effect = higher value
This is part of a sample that, as a whole, favours compounds with a hit. Of some 79,000 tested, about 15% had one in any assay.
Give measured growth inhibition for each item. Keep answers brief.
Write down the numeric answer in % and omit the unit.

Provide only the value of recorded growth inhibition for `CC1=CC(=C(c2ccc(N)c(C)c2)c2ccc(N)c(C)c2)C=CC1=N`
20

Report growth inhibition for O=C(Cc1ccccc1)NN1C(=O)C(Cl)C1c1cc(Br)cc(Br)c1O (configuration not stated)
13

Note growth inhibition for the molecule shown: `S=C(NCc1ccccn1)N/N=C/c1ccccn1`
40

Look up growth inhibition of O=C1C(CCSc2ccccc2)C(=O)N(c2ccccc2)C1c1ccccc1 (configuration not stated) and report it.
28

Return value of growth inhibition for input `COC(=N)c1ccc(O)c(C)c1` , no commentary.
-138

Query growth inhibition for `CCCCCCCCCC(=O)N(CCC)CCC`
97

Could you please provide reported growth inhibition for `CCC(=O)Nc1ccc(N=NN(C)C)cc1` ? Thanks!
-146

Indicate the recorded growth inhibition value for this molecule: `CCN(CC)CCNc1ccc(C)c2sc3ccc(O)cc3c(=O)c12`
52

Recall and state the measured growth inhibition for `CNC(=O)OCc1c(COC(=O)NC)c(C)n(-c2ccc(Br)cc2)c1C` .
27

Specify reported growth inhibition for the molecule shown: `O=C(/N=N/C(=O)Oc1ccccc1)Oc1ccccc1`
30

Look up and state reported growth inhibition for `COc1ccc(/C=C2\SC(=S)N(/C=C3\C(=O)N(c4ccccc4)N=C3C)C2=O)cc1OC`
5

Supply growth inhibition value. Item: `CC1CCN(CCC(=O)c2ccc([N+](=O)[O-])cc2)CC1`
6
